- EXPERIMENTAL_SYSTEM: T1, biotinylated native human ApoC3 (human, UniProt P02656 21-99, biotinylated (site not stated))
- T1 construct: also called biotinylated human ApoC3
- T1 sequence (P02656 21-99): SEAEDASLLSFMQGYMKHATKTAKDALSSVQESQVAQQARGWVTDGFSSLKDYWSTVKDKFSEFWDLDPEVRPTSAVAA
- ASSAY_PROTOCOL: SPR, scFv-Fc over biotinylated ApoC3 on SA chip, pH 7.4

BINDER	kon (M⁻¹ s⁻¹)
5E5WT scFv-Fc (scFv, part only; not given: Linker, domain order, Fc, V domains shown, not shown: another chain or arm of the molecule; a dimerising Fc or GST; small tags and cut ends) VH: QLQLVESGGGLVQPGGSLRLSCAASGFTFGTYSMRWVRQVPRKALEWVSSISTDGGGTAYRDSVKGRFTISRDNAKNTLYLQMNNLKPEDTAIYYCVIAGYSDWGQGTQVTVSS VL: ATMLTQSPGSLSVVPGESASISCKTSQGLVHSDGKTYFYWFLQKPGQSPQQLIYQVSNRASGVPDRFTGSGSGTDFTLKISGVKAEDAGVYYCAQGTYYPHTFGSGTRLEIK	823000
5E5VH12_VLWT scFv-Fc (scFv, part only; not given: Linker, domain order, Fc, V domains shown, not shown: another chain or arm of the molecule; a dimerising Fc or GST; small tags and cut ends) VH: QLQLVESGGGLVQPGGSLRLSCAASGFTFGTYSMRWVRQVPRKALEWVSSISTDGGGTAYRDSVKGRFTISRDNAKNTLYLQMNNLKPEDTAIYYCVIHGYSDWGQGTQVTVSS VL: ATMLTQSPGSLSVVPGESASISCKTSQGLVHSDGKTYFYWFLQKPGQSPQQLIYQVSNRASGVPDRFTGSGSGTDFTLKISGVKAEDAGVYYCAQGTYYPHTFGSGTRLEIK	308000
5E5VHWT_VL8 scFv-Fc (scFv, part only; not given: Linker, domain order, Fc, V domains shown, not shown: another chain or arm of the molecule; a dimerising Fc or GST; small tags and cut ends) VH: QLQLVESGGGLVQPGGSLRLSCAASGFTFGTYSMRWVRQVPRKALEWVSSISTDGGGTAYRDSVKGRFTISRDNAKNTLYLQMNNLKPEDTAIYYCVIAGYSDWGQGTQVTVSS VL: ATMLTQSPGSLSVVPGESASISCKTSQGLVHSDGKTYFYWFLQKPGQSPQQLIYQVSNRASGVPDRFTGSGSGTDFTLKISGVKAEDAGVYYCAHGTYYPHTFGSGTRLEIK	381000
5E5VH5_VLWT scFv-Fc (scFv, part only; not given: Linker, domain order, Fc, V domains shown, not shown: another chain or arm of the molecule; a dimerising Fc or GST; small tags and cut ends) VH: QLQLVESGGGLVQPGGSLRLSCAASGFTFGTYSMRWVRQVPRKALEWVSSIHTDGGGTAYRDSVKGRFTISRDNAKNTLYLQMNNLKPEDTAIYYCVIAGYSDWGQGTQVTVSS VL: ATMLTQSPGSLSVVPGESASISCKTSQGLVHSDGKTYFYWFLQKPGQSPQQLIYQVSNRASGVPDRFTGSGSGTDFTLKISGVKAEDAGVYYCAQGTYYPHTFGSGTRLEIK	178000

Reference source for all entries: patent US20200239555A1
